system: HEK-293T; assay: Multiplex assay against HEK293T; type: toxicity, cell-based; conditions: human, 12 h, 1 µM, compound concentration 1 uM, replicate 1
The compounds listed here are annotated with their Population Pyknosed Nuclei (%).

Illustrative cases are given below, each with its answer.
CCn1c(-c2nc3cc(C(=O)N4CCCC(N)C4)ccc3n2C)cc2ccccc21.Cl (configuration not stated)
13%
CC(C)(O)C(=O)N1CCN(c2ccc(C(F)(F)F)c(C3=C(c4c[nH]c5ccccc45)C(=O)NC3=O)c2)CC1
16%
Cl.Cl.OCCOCCN1CCN(C(c2ccccc2)c2ccc(Cl)cc2)CC1 (configuration not stated) [HYDROXYZINE HYDROCHLORIDE]
13%
O=C(NCCNCC(O)COc1ccc(O)cc1)N1CCOCC1.O=C(NCCNCC(O)COc1ccc(O)cc1)N1CCOCC1.O=C(O)/C=C/C(=O)O (configuration not stated) [XAMOTEROL FUMARATE]
14%
CCCCCCNC(=O)Nc1ccc(S(=O)(=O)Nc2ccc(CCNC[C@H](O)COc3ccc(O)cc3)cc2)cc1 [L-755507]
7%

Req: Supply reported Population Pyknosed Nuclei (%) belonging to this compound: COc1cc(C(=O)N2CC[C@@H](O)[C@@H](N)C2)cc2nc(-c3cc4ccccc4n3CC3CC3)n(C)c12.Cl
Resp: 13%

Req: Return Population Pyknosed Nuclei (%) for the following compound: Cc1ccc(OCC(O)C(C)NC(C)C)c2c1CCC2.Cl (configuration not stated)
Resp: 12%

Req: State its Population Pyknosed Nuclei (%) for this compound: CN1CCN2c3ccccc3Cc3ccccc3C2C1.Cl (configuration not stated) [MIANSERIN HYDROCHLORIDE]
Resp: 14%

Req: Fill in reported Population Pyknosed Nuclei (%) for this entry: COCCCN1CCC(NC(=O)c2cc(Cl)c(N)c3c2OCC3)CC1 [PRUCALOPRIDE]
Resp: 9%

Req: Query Population Pyknosed Nuclei (%) for CC(C)C[C@H](CO)Nc1nc(S[C@@H](C)c2ccccc2)nc2nc(N)sc12 [AZD-8797]
Resp: 15%

Req: Find the measured Population Pyknosed Nuclei (%) of CC(C)(C)c1ccc(CSc2cnn(C(C)(C)C)c(=O)c2Cl)cc1 [PYRIDABEN] and report it.
Resp: 14%

Req: Tell us which Population Pyknosed Nuclei (%) value is on record for COc1c(Nc2ccc(S(C)(=O)=O)nc2C)ncnc1OC1CCN(C(=O)OC(C)C)CC1 [ADP-597]
Resp: 16%

Req: Given the compound CN(C)C(=O)Cn1cc(-c2ccc(-c3nnc4ccccn34)cc2)cn1 , write its reported Population Pyknosed Nuclei (%).
Resp: 11%

Req: Give reported Population Pyknosed Nuclei (%) value for C[C@@H]1CC(=O)Nc2cccc(-c3ccc4c(c3)c(-c3cnn(C)c3)nn4C)c2N1
Resp: 16%

Req: For the compound COC(c1ccccc1)(c1ccccc1)[C@H](Oc1nc(C)cc(C)n1)C(=O)O [AMBRISENTAN] , give its reported Population Pyknosed Nuclei (%).
Resp: 16%

Req: Identify measured Population Pyknosed Nuclei (%) corresponding to COc1cc2nc(N3CCN(C(=O)COc4c(OC)cccc4C(C)C)CC3)nc(N)c2cc1OC.Cl.Cl
Resp: 9%

Req: Return Population Pyknosed Nuclei (%) (reported value) for this compound: C[C@H](NC(=O)CNC(=O)c1cccc(Cl)c1)c1ccccc1
Resp: 15%
